I'd appreciate it if you could supply polymerase ribozyme fitness (log ratio) values for the items below.
B1: TPR t1 (parent)
chain: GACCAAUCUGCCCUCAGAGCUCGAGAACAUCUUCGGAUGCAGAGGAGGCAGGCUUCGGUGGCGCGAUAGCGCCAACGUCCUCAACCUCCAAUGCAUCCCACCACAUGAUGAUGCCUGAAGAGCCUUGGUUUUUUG

- Variants of: B1
- Experiment summary: polymerase ribozyme fitness, log enrichment relative to wild type (log ratio); higher = more active; in vitro selection for triplet polymerase activity
No unit in the answer, only the number.

Would you mind telling me what polymerase ribozyme fitness (log ratio) value was observed for C13A C88G A105G G120U ?
-4.2

Next variant up: A6G C40G U59A A103U
-6.42

Next variant up: G47A A84C A121C
0.928

Next variant up: A2C C12G G42U C49A C73A C82U A111C
-5.3

Next variant up: C8A U130G U132A
-2.74

Next variant up: C8A U21G
-1.24

Next variant up: C15A A66G
-2.15

Next variant up: C4G G39U
-3.24

Next variant up: G36C C72A G122A
-1.22

Next variant up: C62A C101U C114U C124A
-3.63

Next variant up: U54C U81C A95C
-0.789

Next variant up: G10U C13U C70A
-0.716

Next variant up: G63A U132C
-1.92

Next variant up: G45U G60A C82G C85G G117A
-3.09

Next variant up: C40U U116G
-2.61

Next variant up: C15U U21A U96G A118U
-0.0472

Next variant up: G17U A37C
-2.42

Next variant up: U9A G48C C62A G77A C88U U112A
-3.81

Next variant up: A46U U125A
-1.67

Next variant up: C11U A43U C53G
-2.46

Next variant up: C11G C53G C114U G127C
-1.98

Next variant up: A29U C76G C86A
-2.31
